Reference source: paper PMC9482650

ASSAYED TARGET: GRASP, Q7Z6J2
Sequence (Q7Z6J2 96-193): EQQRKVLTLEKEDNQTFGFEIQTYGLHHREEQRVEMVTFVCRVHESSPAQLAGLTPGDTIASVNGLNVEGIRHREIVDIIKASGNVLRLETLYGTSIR
PROTOCOL DETAILS: holdup assay
Design: key: below the threshold = too weak to quantify, mostly under pKd 3.1 to 4
CONDITION CONTEXT: plain residues with an end cap or a label only (N-terminal biotin on a linker: ahx)
REPORTED ENDPOINT: pKd

- KEYDDELTFF [USH1C, Q9Y6N9]: 4.41
- YNSFLSVTTV [PDZRN3, Q9UPQ7]: 4.15
- PKMKLNETSF [SHKBP1, Q8TBC3]: 3.88
- KDECVIATEV [DLL1, O00548]: 4.31
- ADENEQVSAV [RAPGEF6, Q8TEU7]: 4.66
- HSATSVHTSV [MTMR1, Q13613]: 4
